- Test system: MGC-803 cells
- protocol_details: MTT cell growth inhibition assay, MGC-803
- Type: cell-based, human
- condition_context: Homo sapiens, MGC-803, 48 h, MTT, 48 h incubation, MGC-803
pIC50: −log10 of the molar value.
# pIC50 per entry

# example entries with known answers
compound | pIC50
COc1cc(/C(C#N)=C/c2ccc(C(C)C)cc2)cc(OC)c1OC [Compound 6f] | 5.14
Cc1ccc(/C(C#N)=C/c2cccs2)cc1 [Compound 14a] | < 4.00
COc1cc(/C(C#N)=C/c2cccs2)cc(OC)c1OC [Compound 7a] | 6.17

[Q] Query (compound): COc1ccc(/C=C\c2cc(OC)c(OC)c(OC)c2)cc1O [CA-4, reference compound] ; field requested: pIC50
[A] 7.22

[Q] Query (compound): COc1cc(/C(C#N)=C/c2ccc(C)cc2)cc(OC)c1OC [Compound 6h] ; field requested: pIC50
[A] 5.14 to 8.00

[Q] Query (compound): COc1cc(/C=C(\C#N)c2ccc(C)cc2)cc(OC)c1OC [Compound 13c] ; field requested: pIC50
[A] < 4.00

[Q] Query (compound): COc1cc(/C=C(\C#N)c2cc(OC)c(OC)c(OC)c2)cc(OC)c1OC [Compound 6e] ; field requested: pIC50
[A] < 4.00

[Q] Query (compound): CCc1ccc(/C=C(\C#N)c2ccc(C)cc2)cc1 [Compound 13b] ; field requested: pIC50
[A] < 4.00

[Q] Query (compound): CCc1ccc(/C=C(\C#N)c2cc(OC)c(OC)c(OC)c2)cc1 [Compound 6g] ; field requested: pIC50
[A] 5.14 to 8.00
